tested on: Escherichia coli TOP10; assay: shrunken log2 fold change of peptide-encoding DNA abundance (4.5 h post-induction vs induction); higher = less antimicrobial activity (less host growth inhibition); conditions: time post-induction: 4.5 h; library: site-saturation at positions 5, 18, 19, 20
Decision: shrunken log2 fold change >= -0.1 yields class 1, all other cases yield class 0.

Record `RRIRLRPPRLPRPRPRPMHFPRP` ; criterion: shrunken log2 fold change no lower than -0.1. Met?
class 1

Decide: is the reported value of shrunken log2 fold change for `RRIRGRPPRLPRPRPRPINDPRP` equal to or greater than -0.1?
class 0

// inclusive: shrunken log2 fold change at least -0.1? input: `RRIRYRPPRLPRPRPRPIKNPRP`
class 0

# check: shrunken log2 fold change of `RRIRRRPPRLPRPRPRPFIHPRP` is greater than or equal to -0.1
class 0

In plain terms: is recorded shrunken log2 fold change at least -0.1 for `RRIRHRPPRLPRPRPRPFLMPRP` ?
class 0

shrunken log2 fold change >= -0.1 for `RRIRKRPPRLPRPRPRPWSCPRP` ?
class 0

Please check the record `RRIRERPPRLPRPRPRPTPWPRP` and state if its shrunken log2 fold change is at or above -0.1.
class 1

Quick check: does `RRIRMRPPRLPRPRPRPNRAPRP` have shrunken log2 fold change greater than or equal to -0.1?
class 1

Decide: shrunken log2 fold change of `RRIRNRPPRLPRPRPRPHGKPRP` >= -0.1?
class 1

Does `RRIRHRPPRLPRPRPRPNWQPRP` have a reported shrunken log2 fold change of at least -0.1?
class 1

Form field: shrunken log2 fold change at least -0.1? Entry: `RRIRGRPPRLPRPRPRPDLKPRP`
class 1

Hi team, for `RRIRTRPPRLPRPRPRPDNCPRP` , is the recorded shrunken log2 fold change at or above -0.1?
class 1

Decide: is the reported value of shrunken log2 fold change for `RRIRSRPPRLPRPRPRPFLYPRP` equal to or greater than -0.1?
class 0

State whether the measured shrunken log2 fold change reaches -0.1, counting equality as reaching it, for `RRIRDRPPRLPRPRPRPETQPRP`
class 1

Check if shrunken log2 fold change >= -0.1 (inclusive). Item: `RRIRPRPPRLPRPRPRPGTKPRP`
class 1

Textbook exercise: given the entry `RRIRPRPPRLPRPRPRPNYNPRP` , state whether its shrunken log2 fold change is greater than or equal to -0.1.
class 0

Could you verify whether the entry `RRIRTRPPRLPRPRPRPDEIPRP` shows shrunken log2 fold change of no less than -0.1?
class 0

Is shrunken log2 fold change for `RRIRHRPPRLPRPRPRPFTSPRP` at or above -0.1?
class 0

Reported shrunken log2 fold change at or above -0.1? `RRIRDRPPRLPRPRPRPAQMPRP`
class 1

Kindly determine if shrunken log2 fold change recorded for `RRIRVRPPRLPRPRPRPSVSPRP` is above or exactly -0.1.
class 0

Determine whether measured shrunken log2 fold change meets or exceeds -0.1 for `RRIRQRPPRLPRPRPRPEEYPRP`
class 1

Dear colleague, could you confirm whether `RRIRKRPPRLPRPRPRPLVVPRP` has shrunken log2 fold change at or above -0.1?
class 1

Reported shrunken log2 fold change at or above -0.1? `RRIRARPPRLPRPRPRPPCAPRP`
class 1

Could you tell me if the measured shrunken log2 fold change of `RRIRRRPPRLPRPRPRPASDPRP` reaches -0.1 or more?
class 1

For this sequence, is measured shrunken log2 fold change -0.1 or higher? `RRIRRRPPRLPRPRPRPKELPRP`
class 1

Reported shrunken log2 fold change at or above -0.1? `RRIRFRPPRLPRPRPRPNRQPRP`
class 0

State whether the measured shrunken log2 fold change reaches -0.1, counting equality as reaching it, for `RRIRPRPPRLPRPRPRPCGYPRP`
class 0

# bool: shrunken log2 fold change of `RRIRMRPPRLPRPRPRPFTTPRP` >= -0.1
class 1

Determine whether measured shrunken log2 fold change meets or exceeds -0.1 for `RRIRYRPPRLPRPRPRPCMCPRP`
class 0

// inclusive: shrunken log2 fold change at least -0.1? input: `RRIRKRPPRLPRPRPRPCGEPRP`
class 1

Given `RRIRGRPPRLPRPRPRPQSQPRP` , state whether its shrunken log2 fold change is at least -0.1.
class 1

Dear colleague, could you confirm whether `RRIRPRPPRLPRPRPRPFQNPRP` has shrunken log2 fold change at or above -0.1?
class 0

Identify whether the reported shrunken log2 fold change of the following sequence is -0.1 or greater: `RRIRMRPPRLPRPRPRPAFQPRP`
class 1

For this sequence, is measured shrunken log2 fold change -0.1 or higher? `RRIRKRPPRLPRPRPRPEPVPRP`
class 1

Given `RRIRTRPPRLPRPRPRPLNMPRP` , state whether its shrunken log2 fold change is at least -0.1.
class 1

Could you tell me if the measured shrunken log2 fold change of `RRIRHRPPRLPRPRPRPGTNPRP` reaches -0.1 or more?
class 0

Given `RRIRMRPPRLPRPRPRPTTKPRP` , state whether its shrunken log2 fold change is at least -0.1.
class 1

Check the entry `RRIRRRPPRLPRPRPRPMEFPRP` : does shrunken log2 fold change equal or exceed -0.1?
class 1

Answer whether shrunken log2 fold change of `RRIRLRPPRLPRPRPRPVRAPRP` is greater than or equal to -0.1.
class 1

Hi, just wondering whether `RRIRWRPPRLPRPRPRPVNSPRP` shows shrunken log2 fold change of -0.1 or higher.
class 1

Is shrunken log2 fold change for `RRIRHRPPRLPRPRPRPLWQPRP` at or above -0.1?
class 0

Tell me whether shrunken log2 fold change is at least -0.1 here: `RRIRARPPRLPRPRPRPNGWPRP`
class 1

# bool: shrunken log2 fold change of `RRIRWRPPRLPRPRPRPAHCPRP` >= -0.1
class 1

Assess whether reported shrunken log2 fold change for `RRIRRRPPRLPRPRPRPGNYPRP` sits at -0.1 or higher.
class 1

Check if shrunken log2 fold change >= -0.1 (inclusive). Item: `RRIRDRPPRLPRPRPRPHVWPRP`
class 1

hey, is shrunken log2 fold change for this one >= -0.1? `RRIRWRPPRLPRPRPRPVGQPRP`
class 1

Given the entry `RRIRKRPPRLPRPRPRPEMGPRP` , answer whether its shrunken log2 fold change meets or surpasses -0.1.
class 1

Has `RRIRHRPPRLPRPRPRPKITPRP` a recorded shrunken log2 fold change greater than or equal to -0.1?
class 0

Hello, I need to know if `RRIRHRPPRLPRPRPRPMCKPRP` has measured shrunken log2 fold change not below -0.1. Thanks!
class 0

Quick check, shrunken log2 fold change >= -0.1? `RRIRIRPPRLPRPRPRPSYAPRP`
class 1

Does the reported shrunken log2 fold change for `RRIRIRPPRLPRPRPRPKGKPRP` fall at or above the -0.1 mark?
class 0

# check: shrunken log2 fold change of `RRIRTRPPRLPRPRPRPEKDPRP` is greater than or equal to -0.1
class 0

Does the reported shrunken log2 fold change for `RRIRERPPRLPRPRPRPHWHPRP` fall at or above the -0.1 mark?
class 0

Quick check: does `RRIRQRPPRLPRPRPRPSFNPRP` have shrunken log2 fold change greater than or equal to -0.1?
class 0

Determine whether measured shrunken log2 fold change meets or exceeds -0.1 for `RRIRCRPPRLPRPRPRPTFKPRP`
class 0

shrunken log2 fold change >= -0.1 for `RRIRSRPPRLPRPRPRPRQSPRP` ?
class 1

Does `RRIRKRPPRLPRPRPRPYCTPRP` have a reported shrunken log2 fold change of at least -0.1?
class 0

Check the entry `RRIRERPPRLPRPRPRPTPNPRP` : does shrunken log2 fold change equal or exceed -0.1?
class 1

Is shrunken log2 fold change at least -0.1? Consider `RRIRFRPPRLPRPRPRPTYYPRP`
class 0

Assess whether reported shrunken log2 fold change for `RRIRNRPPRLPRPRPRPGKIPRP` sits at -0.1 or higher.
class 0

Please check the record `RRIRGRPPRLPRPRPRPERRPRP` and state if its shrunken log2 fold change is at or above -0.1.
class 1

Does shrunken log2 fold change meet or surpass -0.1 for `RRIRNRPPRLPRPRPRPYPEPRP` ?
class 0

----------
system: Escherichia coli TOP10; assay: shrunken log2 fold change of peptide-encoding DNA abundance (4.5 h post-induction vs induction); higher = less antimicrobial activity (less host growth inhibition); settings: time post-induction: 4.5 h; library: site-saturation at positions 5, 18, 19, 20;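 further: peptides expressed intracellularly from a pBAD plasmid library in pooled LB shake-flask culture, induced with 0.3% L-arabinose, DNA abundance read by NGS, three biological replicates, DESeq2 with apeglm shrinkage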
quantity: shrunken log2 fold change

What does the data say about its shrunken log2 fold change? Entry: `RRIRGRPPRLPRPRPRPGEYPRP`
0.3

# input sequence: `RRIRYRPPRLPRPRPRPLCTPRP` ; wanted: its shrunken log2 fold change
-0.759

Would you kindly share the measured shrunken log2 fold change for `RRIRKRPPRLPRPRPRPYFAPRP` ?
-0.0674

Need shrunken log2 fold change of `RRIRFRPPRLPRPRPRPHCFPRP` , thanks.
-0.0267

So what does the record say about shrunken log2 fold change for `RRIRRRPPRLPRPRPRPEMSPRP` ?
0.0923

Quick one: shrunken log2 fold change of `RRIRNRPPRLPRPRPRPSEGPRP` ?
-0.0276

Request the reported shrunken log2 fold change associated with `RRIRMRPPRLPRPRPRPMSVPRP`
-0.00306

Given the entry `RRIRNRPPRLPRPRPRPDQFPRP` , report its measured shrunken log2 fold change.
-0.0466

Suppose we examine the sequence `RRIRERPPRLPRPRPRPYKVPRP` ; what shrunken log2 fold change value has been reported?
-0.0366

Data request, read-out shrunken log2 fold change, for `RRIRKRPPRLPRPRPRPQQSPRP`
-0.0568

Name the recorded shrunken log2 fold change for `RRIRSRPPRLPRPRPRPSIGPRP` .
0.347

Recorded shrunken log2 fold change of `RRIRSRPPRLPRPRPRPSPHPRP` , please.
-0.194

Any idea what its shrunken log2 fold change is? The sequence is `RRIRGRPPRLPRPRPRPIQTPRP`
0.0411

I would be grateful if you could share the reported shrunken log2 fold change for `RRIRARPPRLPRPRPRPQVIPRP` .
-0.109

Give the measured shrunken log2 fold change of `RRIRWRPPRLPRPRPRPVYIPRP` .
-0.0308
